Listed below: binding signal values for each entry.
measured-target: Int-His6 (bacteriophage lambda integrase, with IHF; BP Clonase) (Bacteriophage lambda) (UniProt P03700+P0A6X7+P0A6Y1)
test: cell_activity
condition-parameters: degenerate pool vs attB1-LacZa-attB2, overnight

| residue-string | binding signal |
| --- | --- |
| GGGGACCACTTTGTACAAGAAAGCNNNNN (double strand) [attB2n21-25] | 21% |
| GGGGACAAGTTTGTACAAAAAAGCNNNNN (double strand) [attB1n21-25] | 14% |
| GGGGACCACTTTGTACAAGNNNNNTGGGT (double strand) [attB2n16-20] | 0.9% |
| GGGGACAAGTTTGTACAAANNNNNAGGCT (double strand) [attB1n16-20] | 1.5% |
